# maps each entry to its pIC50
target: Metabotropic glutamate receptor 3 (Rattus norvegicus, UniProt P31422); assay: Antagonist activity at rat mGluR3 receptor expressed in CHO cells assessed as inhibition of GIRK current
Sequence (P31422 whole entry): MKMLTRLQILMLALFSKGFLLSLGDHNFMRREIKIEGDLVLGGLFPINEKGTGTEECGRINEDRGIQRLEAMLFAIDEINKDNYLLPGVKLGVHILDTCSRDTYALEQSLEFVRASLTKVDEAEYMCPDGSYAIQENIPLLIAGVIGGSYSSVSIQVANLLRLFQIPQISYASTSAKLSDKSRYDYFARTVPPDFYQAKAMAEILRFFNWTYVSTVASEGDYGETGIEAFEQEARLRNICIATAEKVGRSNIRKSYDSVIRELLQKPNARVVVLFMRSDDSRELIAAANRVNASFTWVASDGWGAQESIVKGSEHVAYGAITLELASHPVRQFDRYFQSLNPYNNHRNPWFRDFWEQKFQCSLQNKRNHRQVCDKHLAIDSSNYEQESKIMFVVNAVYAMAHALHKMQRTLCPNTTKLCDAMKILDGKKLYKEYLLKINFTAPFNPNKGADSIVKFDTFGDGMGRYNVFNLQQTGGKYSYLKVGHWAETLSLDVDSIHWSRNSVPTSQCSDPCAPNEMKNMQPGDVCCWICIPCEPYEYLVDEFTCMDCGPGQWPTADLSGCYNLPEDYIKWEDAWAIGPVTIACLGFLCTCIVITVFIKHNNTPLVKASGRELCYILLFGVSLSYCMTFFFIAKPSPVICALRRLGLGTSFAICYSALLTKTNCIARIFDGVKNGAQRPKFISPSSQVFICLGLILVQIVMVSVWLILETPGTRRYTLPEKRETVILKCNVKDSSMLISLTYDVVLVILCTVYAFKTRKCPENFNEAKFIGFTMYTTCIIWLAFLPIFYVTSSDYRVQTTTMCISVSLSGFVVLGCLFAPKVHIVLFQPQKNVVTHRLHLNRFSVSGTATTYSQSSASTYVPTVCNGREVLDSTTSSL
pIC50: −log10 of the molar value.
VALUE KIND: pIC50

O=C1CC(c2cccc(-n3ccnn3)c2)=Nc2ccc(-c3ccccc3F)cc2N1 7.48
CCOc1cc2c(cc1C(F)(F)F)NC(=O)CC(c1cccc(-c3ccnc(C)c3)c1)=N2 8.52
O=C1CC(c2cccc(-c3ccncc3)c2)=Nc2ccc(C(F)(F)F)cc2N1 7.54
Cc1cc(-c2cccc(C3=Nc4cc(Cl)c(Cl)cc4NC(=O)C3)c2)ccn1 7.52
CCOc1cc2c(cc1C(F)(F)F)NC(=O)CC(c1cccc(-c3ccncc3)c1)=N2 8.22

* * *

target: UniProt P31421; assay: Antagonist activity at recombinant rat mGluR2 expressed in forskolin-stimulated CHO cells assessed as inhibition of (1S,3R)-ACPD induced cAMP production; format: functional, cell-based
pIC50: −log10 of the molar value.
VALUE KIND: pIC50

CCOc1cc2c(cc1C(F)(F)F)NC(=O)CC(c1cccc(-c3ccnc(C)c3)c1)=N2 8.10
Cc1cc2c(cc1C(F)(F)F)NC(=O)CC(c1cccc(-c3ccnc(C(C)C)c3)c1)=N2 8.00
CCOc1cc2c(cc1C(F)(F)F)NC(=O)CC(c1cccc(-c3ccncc3)c1)=N2 8.00
Cc1cc2c(cc1C(F)(F)F)NC(=O)CC(c1cccc(-n3cncn3)c1)=N2 7.12
Cc1cc2c(cc1C(F)(F)F)NC(=O)CC(c1cccc(-c3ccnc(C(C)(C)O)c3)c1)=N2 7.85
Cc1cc2c(cc1C(F)(F)F)NC(=O)CC(c1cccc(-c3ccc(C(C)C)nc3)c1)=N2 8.00
CCc1cc(-c2cccc(C3=Nc4cc(C)c(C(F)(F)F)cc4NC(=O)C3)c2)ccn1 8.30
COc1cc(-c2cccc(C3=Nc4cc(C)c(C(F)(F)F)cc4NC(=O)C3)c2)ccn1 7.80
Cc1cc2c(cc1C(F)(F)F)NC(=O)CC(c1cccc(-c3ccc(C4CC4)nc3)c1)=N2 7.70
Cc1cc(-c2cccc(C3=Nc4cc(C)c(C(F)(F)F)cc4NC(=O)C3)c2)on1 8.05
COc1ccc(-c2cccc(C3=Nc4cc(C)c(C(F)(F)F)cc4NC(=O)C3)c2)cn1 8.00
Cc1cc2c(cc1C(F)(F)F)NC(=O)CC(c1cccc(-c3ccnc(Cc4ccccc4)c3)c1)=N2 8.30
O=C1CC(c2cccc(-c3ccncc3)c2)=Nc2ccc(Cl)cc2N1 8.52

* * *

target: Metabotropic glutamate receptor 2 (Rattus norvegicus, UniProt P31421); experiment: Partial displacement of [3H]LY354740 from recombinant rat mGluR2
Sequence (P31421 whole entry): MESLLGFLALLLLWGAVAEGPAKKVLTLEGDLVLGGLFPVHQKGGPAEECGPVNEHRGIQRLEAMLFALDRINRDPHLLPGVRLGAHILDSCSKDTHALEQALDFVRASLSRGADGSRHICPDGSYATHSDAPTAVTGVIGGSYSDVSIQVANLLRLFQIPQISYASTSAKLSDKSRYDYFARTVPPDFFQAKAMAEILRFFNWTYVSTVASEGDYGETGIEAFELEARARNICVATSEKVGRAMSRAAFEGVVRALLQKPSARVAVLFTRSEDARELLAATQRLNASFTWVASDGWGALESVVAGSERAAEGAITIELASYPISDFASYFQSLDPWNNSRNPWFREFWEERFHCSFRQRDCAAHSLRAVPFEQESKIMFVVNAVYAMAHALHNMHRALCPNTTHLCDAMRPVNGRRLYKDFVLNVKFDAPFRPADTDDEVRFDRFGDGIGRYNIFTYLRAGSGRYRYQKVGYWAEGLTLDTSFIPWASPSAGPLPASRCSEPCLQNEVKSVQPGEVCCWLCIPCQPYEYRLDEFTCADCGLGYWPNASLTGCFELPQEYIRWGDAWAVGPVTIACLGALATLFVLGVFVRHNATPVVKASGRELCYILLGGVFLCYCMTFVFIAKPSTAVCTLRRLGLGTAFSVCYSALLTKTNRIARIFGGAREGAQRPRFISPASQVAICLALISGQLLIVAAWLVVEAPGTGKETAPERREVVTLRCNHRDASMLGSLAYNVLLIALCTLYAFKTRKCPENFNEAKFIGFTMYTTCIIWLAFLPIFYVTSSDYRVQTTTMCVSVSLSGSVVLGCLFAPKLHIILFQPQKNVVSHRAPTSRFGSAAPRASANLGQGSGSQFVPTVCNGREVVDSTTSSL
pIC50: −log10 of the molar value.
Please enter Criterion met where pIC50 is greater than or equal to 8, and Criterion not met where it is lower.

Cc1cc2c(cc1C(F)(F)F)NC(=O)CC(c1cccc(-c3ccnc(CN(C)C)c3)c1)=N2 Criterion not met
Cc1cc2c(cc1C(F)(F)F)NC(=O)CC(c1cccc(-c3ccc(N(C)C)nc3)c1)=N2 Criterion not met
Cc1cc(-c2cccc(C3=Nc4cc(C)c(C(F)(F)F)cc4NC(=O)C3)c2)cc(C2CC2)n1 Criterion met
Cc1cc2c(cc1C(F)(F)F)NC(=O)CC(c1cccc(-c3ccnc(N4CCOCC4)c3)c1)=N2 Criterion not met
COc1ccc(-c2cccc(C3=Nc4cc(C)c(C(F)(F)F)cc4NC(=O)C3)c2)cn1 Criterion met
Cc1cc2c(cc1C(F)(F)F)NC(=O)CC(c1cccc(-c3cncnc3)c1)=N2 Criterion not met
CCOc1cc2c(cc1C(F)(F)F)NC(=O)CC(c1cccc(-c3ccncc3)c1)=N2 Criterion met
Cc1cc2c(cc1C(F)(F)F)NC(=O)CC(c1cccc(-c3ccnc(C(F)(F)F)c3)c1)=N2 Criterion not met
Cc1cc2c(cc1C(F)(F)F)NC(=O)CC(c1cccc(-c3ccnc(C(C)(C)O)c3)c1)=N2 Criterion not met
Cc1cc2c(cc1C(F)(F)F)NC(=O)CC(c1cccc(-c3ccnc(-n4cccc4)c3)c1)=N2 Criterion not met
Cc1ccc2c(c1)NC(=O)CC(c1ccccc1)=N2 Criterion not met
CCc1cc(-c2cccc(C3=Nc4cc(C)c(C(F)(F)F)cc4NC(=O)C3)c2)cc(C)n1 Criterion met
Cc1cc2c(cc1C(F)(F)F)NC(=O)CC(c1cccc(-c3cccnc3)c1)=N2 Criterion met
Cc1cc2c(cc1C(F)(F)F)NC(=O)CC(c1cccc(-c3ccnnc3)c1)=N2 Criterion not met
